reportedMetric: melting point (°C)

{"columns": ["molecule", "endpointResult"],
 "data": [
  ["CCCNc1nnc(-c2ccc(-c3nc4ccccc4[nH]3)cc2)s1 [Compound 5g]", 275.2],
  ["Clc1ccccc1Nc1nnc(-c2ccc(-c3nc4ccccc4[nH]3)cc2)s1 [Compound 5d]", 294.8],
  ["CC(C)Nc1nnc(-c2ccc(-c3nc4ccccc4[nH]3)cc2)s1 [Compound 5f]", 324.7],
  ["ClCCNc1nnc(-c2ccc(-c3nc4ccccc4[nH]3)cc2)s1 [Compound 5c]", 191.2]
]}

* * *

reportedMetric: melting point (°C)

{"columns": ["molecularString", "unitsLabel", "melting point"],
 "data": [
  ["CC(C)CNc1nnc(-c2ccc(-c3nc4ccccc4[nH]3)cc2)s1", "°C", 315.6],
  ["c1ccc2[nH]c(-c3ccc(-c4nnc(NC5CCCCC5)s4)cc3)nc2c1", "°C", 276.5],
  ["COc1ccc(Nc2nnc(-c3ccc(-c4nc5ccccc5[nH]4)cc3)s2)cc1", "°C", 276.7],
  ["CNc1nnc(-c2ccc(-c3nc4ccccc4[nH]3)cc2)s1", "°C", 325.6],
  ["CCNc1nnc(-c2ccc(-c3nc4ccccc4[nH]3)cc2)s1", "°C", 321.6]
]}

* * *

# Test system: C. krusei (ATCC 6258)
# experimentSummary: Antifungal microdilution MIC
# Assay type: cell-based
# measurementConditions: Pichia kudriavzevii, ATCC6258; C. krusei (ATCC 6258); read-out: MIC
# Protocol: The antifungal and antibacterial activities of the synthesized compounds (5a–i) were evaluated in vitro against E. coli (ATCC 25922), S. marcescens (ATCC 8100), K. pneumoniae (ATCC 13883), P. aeruginosa (ATCC 27853), E. faecalis (ATCC 2942), B. subtilis, S. aureus (ATCC 29213), S. epidermidis (ATCC 12228), C. albicans (ATCC 24433), C. krusei (ATCC 6258), and C. parapsilosis (ATCC 22019). […]
reportedMetric: MIC (µg/mL)

{"columns": ["molecule", "MIC, µg/mL"],
 "data": [
  ["CC(C)Nc1nnc(-c2ccc(-c3nc4ccccc4[nH]3)cc2)s1", 125],
  ["c1ccc2[nH]c(-c3ccc(-c4nnc(NC5CCCCC5)s4)cc3)nc2c1", 125]
]}

[I] COc1ccc(Nc2nnc(-c3ccc(-c4nc5ccccc5[nH]4)cc3)s2)cc1
[II] C[C@@H](c1ncncc1F)[C@](O)(Cn1cncn1)c1ccc(F)cc1F [voriconazole, reference compound]
Request: Input pair: I , II . Output: entry with lower MIC. Respond using the label that marks the chosen record.
Result: II
(II: 3.9 µg/mL, I: 125 µg/mL)

* * *

# System: C. krusei (ATCC 6258)
# experimentSummary: Antifungal microdilution MIC
# Format: cell-based
# measurementConditions: Pichia kudriavzevii, ATCC6258; C. krusei (ATCC 6258); read-out: MIC
reportedMetric: MIC (µg/mL)

{"columns": ["compound", "experimentalSystem", "MIC [µg/mL]"],
 "data": [
  ["CC(C)CNc1nnc(-c2ccc(-c3nc4ccccc4[nH]3)cc2)s1", "C. krusei (ATCC 6258)", 125],
  ["CCCNc1nnc(-c2ccc(-c3nc4ccccc4[nH]3)cc2)s1", "C. krusei (ATCC 6258)", 125],
  ["Clc1ccccc1Nc1nnc(-c2ccc(-c3nc4ccccc4[nH]3)cc2)s1", "C. krusei (ATCC 6258)", 125],
  ["CCNc1nnc(-c2ccc(-c3nc4ccccc4[nH]3)cc2)s1", "C. krusei (ATCC 6258)", 31.2]
]}

[I] CNc1nnc(-c2ccc(-c3nc4ccccc4[nH]3)cc2)s1
[II] OC(Cn1cncn1)(Cn1cncn1)c1ccc(F)cc1F [fluconazole, reference compound]
Request: Between I and II , whose measured MIC reads higher? Kindly state the label of the option you pick.
Result: I
(I: 125 µg/mL, II: 7.81 µg/mL)
